- assayInfo: self-splicing fitness, log relative to wild type (ln ratio); higher = more splicing; Tetrahymena group I intron in knt gene, E. coli kanamycin selection, DiMSum; sequences stand for … in CUCUCU…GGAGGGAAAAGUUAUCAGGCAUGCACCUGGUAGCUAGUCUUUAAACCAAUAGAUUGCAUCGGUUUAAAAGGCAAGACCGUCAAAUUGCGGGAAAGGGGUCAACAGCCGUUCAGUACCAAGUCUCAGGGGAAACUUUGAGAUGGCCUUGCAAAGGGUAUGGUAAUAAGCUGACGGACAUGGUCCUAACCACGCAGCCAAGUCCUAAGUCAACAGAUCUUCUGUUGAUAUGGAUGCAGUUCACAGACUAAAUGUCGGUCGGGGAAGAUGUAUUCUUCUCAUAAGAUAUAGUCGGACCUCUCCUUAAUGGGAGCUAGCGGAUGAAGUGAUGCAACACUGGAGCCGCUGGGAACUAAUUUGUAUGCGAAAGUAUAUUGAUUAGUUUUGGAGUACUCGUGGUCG;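 note: selection with 25 µg/mL kanamycin versus none on LB agar overnight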
- assaySetup: 30 °C
Tag: MET if measured self-splicing fitness (ln) is not below -2, NOT MET if it is.

Has AUGUAGCAAUAUUACGAAAU a recorded self-splicing fitness (ln) greater than or equal to -2?
MET

Please check the record AAUGAGCAAUAUUACGAGUG and state if its self-splicing fitness (ln) is at or above -2.
NOT MET

Quick check: does UACUAGCAAUAUUACGCAAC have self-splicing fitness (ln) greater than or equal to -2?
NOT MET

Say whether GGUUAGCAAUAUUACGCUGC shows self-splicing fitness (ln) of -2 or more.
MET

Is self-splicing fitness (ln) at least -2? Consider UUGGAGCAAUAUUACGAGGG
NOT MET

Determine whether this sequence has self-splicing fitness (ln) no lower than -2: CGGCAGCAAUAUUACGCCAU
NOT MET

Form field: self-splicing fitness (ln) at least -2? Entry: CUGAAGCAAUAUUACGGGGG
MET

Reported self-splicing fitness (ln) at or above -2? GUAUAGCAAUAUUACGUAUA
NOT MET

Could you tell me if the measured self-splicing fitness (ln) of AGCAAGCAAUAUUACGUAAA reaches -2 or more?
NOT MET

Does the sequence CAGGAGCAAUAUUACGUUUC have recorded self-splicing fitness (ln) that is -2 or more?
NOT MET

Could you verify whether the entry ACGAAGCAAUAUUACGCGAG shows self-splicing fitness (ln) of no less than -2?
MET

Check if self-splicing fitness (ln) >= -2 (inclusive). Item: UGAUAGCAAUAUUACGGUGU
NOT MET

Has GUGGAGCAAUAUUACGCGCA a recorded self-splicing fitness (ln) greater than or equal to -2?
MET

# check: self-splicing fitness (ln) of CAGCAGCAAUAUUACGCUGG is greater than or equal to -2
NOT MET

Given CAGGAGCAAUAUUACGGGUG , state whether its self-splicing fitness (ln) is at least -2.
MET

For this sequence, is measured self-splicing fitness (ln) -2 or higher? CACCAGCAAUAUUACGUAAA
NOT MET

Can AUUCAGCAAUAUUACGCUUG be said to have self-splicing fitness (ln) at or above -2?
MET

Evaluate UGCUAGCAAUAUUACGAGCC : self-splicing fitness (ln) at minimum -2?
MET

Decide: is the reported value of self-splicing fitness (ln) for CCAGAGCAAUAUUACGAUAA equal to or greater than -2?
NOT MET

Form field: self-splicing fitness (ln) at least -2? Entry: GGAGAGCAAUAUUACGGCUA
NOT MET

Does self-splicing fitness (ln) meet or surpass -2 for AUAUAGCAAUAUUACGUAAA ?
NOT MET

State whether the measured self-splicing fitness (ln) reaches -2, counting equality as reaching it, for AAUCAGCAAUAUUACGGAAC
MET

Say whether UCCGAGCAAUAUUACGUAUC shows self-splicing fitness (ln) of -2 or more.
NOT MET

Check this sequence for self-splicing fitness (ln) at or above -2: AUCUAGCAAUAUUACGGCGC
MET

Is self-splicing fitness (ln) for GCGGAGCAAUAUUACGUCGA at or above -2?
NOT MET

Exam item: decide whether the reported self-splicing fitness (ln) for CCCUAGCAAUAUUACGAGCG is at least -2.
NOT MET

Could you please find out whether UCAUAGCAAUAUUACGGACA has self-splicing fitness (ln) that meets -2 or exceeds it?
NOT MET

Reported self-splicing fitness (ln) at or above -2? GGCUAGCAAUAUUACGGUGA
MET

Given the entry ACGGAGCAAUAUUACGGUGG , answer whether its self-splicing fitness (ln) meets or surpasses -2.
NOT MET

Could you tell me if the measured self-splicing fitness (ln) of CGCAAGCAAUAUUACGCGUU reaches -2 or more?
NOT MET

Given AAUGAGCAAUAUUACGCAUU , state whether its self-splicing fitness (ln) is at least -2.
NOT MET

Could you tell me if the measured self-splicing fitness (ln) of UCCCAGCAAUAUUACGUGCU reaches -2 or more?
NOT MET

Record UCCUAGCAAUAUUACGUGCC ; criterion: self-splicing fitness (ln) no lower than -2. Met?
NOT MET

Is self-splicing fitness (ln) at least -2? Consider AAUAAGCAAUAUUACGUUAG
NOT MET

Item UUCAAGCAAUAUUACGGGGA with self-splicing fitness (ln) of -2 or above?
MET

Record CAGAAGCAAUAUUACGCGCU ; criterion: self-splicing fitness (ln) no lower than -2. Met?
NOT MET

Can UUAAAGCAAUAUUACGACUU be said to have self-splicing fitness (ln) at or above -2?
MET

Does self-splicing fitness (ln) meet or surpass -2 for ACACAGCAAUAUUACGUUUC ?
NOT MET

Identify whether the reported self-splicing fitness (ln) of the following sequence is -2 or greater: GUUAAGCAAUAUUACGUGAU
MET

For this sequence, is measured self-splicing fitness (ln) -2 or higher? GGGCAGCAAUAUUACGUAUA
MET

// inclusive: self-splicing fitness (ln) at least -2? input: GCAUAGCAAUAUUACGUUGA
NOT MET

Test whether the sequence UCGAAGCAAUAUUACGGCCG records self-splicing fitness (ln) of -2 or higher.
MET

Given the entry GCCUAGCAAUAUUACGUAUA , answer whether its self-splicing fitness (ln) meets or surpasses -2.
NOT MET

Quick check, self-splicing fitness (ln) >= -2? UACGAGCAAUAUUACGUUAC
NOT MET

Record AUGUAGCAAUAUUACGAUCU ; criterion: self-splicing fitness (ln) no lower than -2. Met?
MET

Hello, I need to know if AGAAAGCAAUAUUACGAUAC has measured self-splicing fitness (ln) not below -2. Thanks!
MET

Decide: self-splicing fitness (ln) of GCUGAGCAAUAUUACGCGUU >= -2?
NOT MET

Does self-splicing fitness (ln) meet or surpass -2 for CAGGAGCAAUAUUACGCUUA ?
NOT MET

Check the entry CAGUAGCAAUAUUACGAGUG : does self-splicing fitness (ln) equal or exceed -2?
MET

Item UACAAGCAAUAUUACGUAGA with self-splicing fitness (ln) of -2 or above?
NOT MET

# bool: self-splicing fitness (ln) of CCCAAGCAAUAUUACGCGAC >= -2
NOT MET

Hi team, for GCUCAGCAAUAUUACGAUUC , is the recorded self-splicing fitness (ln) at or above -2?
MET

Exam item: decide whether the reported self-splicing fitness (ln) for CUUUAGCAAUAUUACGGGAU is at least -2.
NOT MET

Given ACCGAGCAAUAUUACGGGGG , state whether its self-splicing fitness (ln) is at least -2.
NOT MET

Kindly determine if self-splicing fitness (ln) recorded for UUUCAGCAAUAUUACGUAUA is above or exactly -2.
MET

Does self-splicing fitness (ln) meet or surpass -2 for AUCUAGCAAUAUUACGGACA ?
MET

I'd appreciate it if you could say whether CUACAGCAAUAUUACGCUUG has self-splicing fitness (ln) at least equal to -2.
NOT MET

Is it the case that GCCGAGCAAUAUUACGCUAA has self-splicing fitness (ln) reaching or exceeding -2?
MET

Please check the record CUCUAGCAAUAUUACGUCCC and state if its self-splicing fitness (ln) is at or above -2.
NOT MET

Please check the record GUAAAGCAAUAUUACGAUUG and state if its self-splicing fitness (ln) is at or above -2.
NOT MET

self-splicing fitness (ln) >= -2 for UCAAAGCAAUAUUACGUACC ?
NOT MET

// inclusive: self-splicing fitness (ln) at least -2? input: CAACAGCAAUAUUACGUCGA
MET

Every entry's value here was drawn from the supplement of paper PMC7877785.
